- assayedTarget: T1, Activin A (human, UniProt P08476 311-426)
- T1 construct: Homodimer of two βA subunits; bought from R&D Systems (#338-AC); also called inhibin-βA dimer; human Activin A
- T1 sequence: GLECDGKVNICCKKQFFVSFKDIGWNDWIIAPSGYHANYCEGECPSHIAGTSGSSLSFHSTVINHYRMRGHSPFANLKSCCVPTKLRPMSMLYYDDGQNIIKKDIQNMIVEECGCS
- methodDescription: SPR, captured mAb, 25C
endpoint: Kd

- H4H10430P (antibody, human IgG4, V domains shown, also called H4H1430P; H4H10430P2) VH: EVQLVESGGGLVQPGRSLRLSCKASGFAFDDFAMHWVRQAPGKGLEWVSGIVWNSGDIGYADSVKGRFTISRDNAKNSLYLQLNSLRTEDTALYFCVKDMVRGLMGFNYYGMDVWGQGTTVTVSS VL: EIVLTQSPATLSLSPGERATLSCRASQTISTYLVWYRQRPGQAPSLLIYDASNRATDIPARFSGSGSGTDFTLTISSLEPEDFAVYYCQQRSNWPITFGQGTRLEIK: 0.00352 nM
- H4H10429P (antibody, human IgG4, V domains shown) VH: QVQLVESGGGVVQPGRSLRLSCVASGFTVSSYGIHWVRQAPGKGLEWVSVIWYDGRNKDYADSVKGRFTISRDNSKNTVYLEMKGLRAEDTALYYCARDKTGDFDSWGQGTLVTVSS VL: DIQMTQSPSSLSASVGDRVTITCRASQNINSFLSWYQQKPGKAPKFLIYDASSIQSGAPSRFSGSGSGTDFTLTISSLQPEDFATYYCQQSYSSPFTFGQGTKLEIK: 0.00817 nM
- H4H10424P (antibody, human IgG4, V domains shown) VH: QVQLVESGGGVVQPGRSLRLSCAASGFTFSSYGMHWVRQAPGKGLEWVAVIWYDGSNKYNADSVKGRFTISRDNSKNTVYLQMNSLRAEDTAVYYCARARNYDILTGYYNLGMDVWGQGTTVTVSS VL: DIQMTQSPSSLSASVGDRVTITCRASQGIRNDLGWYQQKPGKAPKRLIYAASSLQSGVPSRFSGSGSGTEFTLTISSLQPEDFATYYCLQHNSYPYTFGQGTKLEIK: 0.229 nM
- H4H10426P (antibody, human IgG4, V domains shown) VH: EVQLVESGGNLVQSGRSLRLSCTASGFAFDDFAMHWVRQVPGKGLEWVSGISWNSDTIGYADSVKGRFTISRDNAQNSLFLQMDSLRAEDTALYYCVKDMVRGLIGYYYYGMDVWGQGTTVTVSS VL: EIVLTQSPAILSLSPGERAILSCRASQSIYTYLSWYQQTPGRAPRLLIYETSSRATGIPARFIGSGSGTDFTLTISSLEPEDFAFYYCQHRSDWPPTFGQGTKLEIK: 0.0595 nM
